# Tested on: SK-MEL-28 melanoma
# Experiment notes: NCI tumour cell line growth inhibition, 48 h; in the data active = GI50 below about 0.43 µM; inactive = the rest
Possible outcomes: active, inactive

>  <Compound>
CCOC(=O)N1CCN(S(=O)(=O)c2oc(-c3ccc(Cl)cc3)nc2C#N)CC1

>  <Class name>
inactive

$$$$
>  <Compound>
CN(C)c1ccc(N=Nc2c([O-])ccc3ccccc23)cc1.[C-]#[O+].[C-]#[O+].[Ir]

>  <Class name>
inactive

$$$$
>  <Compound>
COc1cnc2c(c1)C(=O)c1c-2n(CCCN2CCCC2)c(=O)c2cc(Cl)ccc12

>  <Class name>
inactive

$$$$
>  <Compound>
COc1ccc2c(c1)C(=O)c1c-2n(CCCN2CCOCC2)c(=O)c2ccccc12

>  <Class name>
inactive

$$$$
>  <Compound>
O=c1oc2ccc(Cl)cc2c(=O)n1-c1ccc(I)cc1F

>  <Class name>
active

$$$$
>  <Compound>
C/C1=C\CC[C@@](C)(O)[C@@H]2CC3[C@@H](OC(=O)C34CC4)[C@@H](O2)[C@H](C)CCC1 (some centres not stated)

>  <Class name>
inactive

$$$$
>  <Compound>
CCCCCCCCCCCCC(=O)[O-].CCCCCCCCCCCCC(=O)[O-].CCCCCCCCCCCCC(=O)[O-].CCCCCCCCCCCCC(=O)[O-].[Mo+2].[Mo+2]

>  <Class name>
inactive

$$$$

====

# System: NCI-H226 lung
# Experiment notes: NCI tumour cell line growth inhibition, 48 h

>  <Compound>
Clc1ncnc2c1nc(C#Cc1ccccc1)n2Cc1ccccc1

>  <TGI>
> 100 µM

$$$$
>  <Compound>
O=C1C(N=Nc2ccc(-c3nc4ccccc4o3)cc2)NC(=S)N1c1ccccc1 (stereo not given)

>  <TGI>
> 100 µM

$$$$
>  <Compound>
O=C(O)C/C(=C\c1ccccc1)C(=O)O

>  <TGI>
> 100 µM

$$$$
>  <Compound>
CCCCCCCCCCCC1N=C(N)NC(CCCO)=C1C(=O)OC (stereo not given)

>  <TGI>
32 µM

$$$$
>  <Compound>
Cc1cc(C2(c3cc(C)c(O)c(C(=O)O)c3)OS(=O)(=O)c3ccccc32)cc(C(=O)O)c1O

>  <TGI>
> 100 µM

$$$$
>  <Compound>
O=C(NCCNCCO)N/N=C/c1ccc([N+](=O)[O-])cc1

>  <TGI>
> 100 µM

$$$$
>  <Compound>
O=C(NN1C(=O)CSC1c1ccc(Cl)cc1)c1[nH]c2ccc(F)cc2c1-c1ccccc1 (stereo not given)

>  <TGI>
9.43 µM

$$$$
>  <Compound>
O=[N+]([O-])c1ccc(CS(=O)Cc2ccccc2)cc1 (stereo not given)

>  <TGI>
> 100 µM

$$$$
>  <Compound>
C/C(=N\NC(N)=O)C(CN(C)C)C(c1ccccc1)c1c(O)c2ccccc2oc1=O (stereo not given)

>  <TGI>
> 100 µM

$$$$
>  <Compound>
COc1ccc2c(C(=O)O)cc3cc(OC)c(OC)cc3c2c1

>  <TGI>
> 100 µM

$$$$
>  <Compound>
CCOC(=O)C1(Cc2c[nH]c3ccccc23)C(O)CCCN1C(C)=O (stereo not given)

>  <TGI>
> 100 µM

$$$$
>  <Compound>
C=C(C)[C@@H]1CC[C@@]2(C)[C@H]1[C@H]1CCC3[C@@]4(C)CC[C@H](O)C(C)(C)[C@@H]4CC[C@@]3(C)[C@]1(C)C[C@@H]2O (stereo not given in full)

>  <TGI>
> 100 µM

$$$$
>  <Compound>
Cc1c2ccncc2c(C)c2c1[nH]c1ccc(OC(C)(C)C)cc12

>  <TGI>
14.8 µM

$$$$
>  <Compound>
CC1CC[C@@]2(OC1)OC1C[C@H]3[C@@H]4CC[C@H]5CC(OC6OC(CO)C(OC7OC(CO)C(O)C(O)C7O)C(O)C6O)CCC5(C)[C@H]4CCC3(C)C1[C@@H]2C (stereo not given in full)

>  <TGI>
16.5 µM

$$$$
>  <Compound>
CCOC(CCCN1CCC2(CC1)C(=O)N(C)CN2c1ccccc1)(OCC)c1ccc(F)cc1

>  <TGI>
33.6 µM

$$$$
>  <Compound>
CN1CN(c2ccccc2)C2(CCN(CCCC(=O)c3cccs3)CC2)C1=O

>  <TGI>
> 100 µM

$$$$
>  <Compound>
CC(C)OC(=O)c1ccc2[nH]c(O)c(C(=Nc3ccc(N(C)C(=O)CN4CCN(C)CC4)cc3)c3ccccc3)c2c1

>  <TGI>
2.83 µM

$$$$
>  <Compound>
Clc1ccc(CN2COc3c(cc(Cl)c4cccnc34)C2)cc1

>  <TGI>
8.67 µM

$$$$
>  <Compound>
COC(=O)[C@]1(C)CCC[C@@]2(C)C1CCC1=C[C@@]3(C(C)C)CC[C@]12OO3 (stereo not given in full)

>  <TGI>
51.2 µM

$$$$
>  <Compound>
CC(=O)c1cccc(NCn2nnc3ccccc32)c1

>  <TGI>
> 100 µM

$$$$
>  <Compound>
COC(=O)C(=O)C(C(=O)C=C(C)C)C(=O)C(=O)Nc1cccc(C(C)=O)c1 (stereo not given)

>  <TGI>
> 100 µM

$$$$
>  <Compound>
O=C1CCc2cc3c(cc21)CC1(Cc2ccccc2C1)C3

>  <TGI>
67.7 µM

$$$$
>  <Compound>
Cc1ccc(NC(=O)CC(=O)n2nc(C)c(N=Nc3ccc(S(=O)(=O)CCOS(=O)(=O)O)cc3)c2C)cc1

>  <TGI>
> 100 µM

$$$$
>  <Compound>
COc1ccc(COCC(Cn2ccnc2)OCc2ccc(C(=O)O)cc2)cc1 (stereo not given)

>  <TGI>
> 100 µM

$$$$
>  <Compound>
FC(F)(F)C12C34C=CC5(CCC6(C=CC1(CC3)O6)C52C(F)(F)F)O4 (stereo not given)

>  <TGI>
> 100 µM

$$$$
>  <Compound>
Cc1ccc(-c2n[nH]c(=O)[nH]2)cc1

>  <TGI>
> 100 µM

$$$$
>  <Compound>
CCOC(=O)c1cnn(-c2ccnc3c(C(F)(F)F)cccc23)c1N

>  <TGI>
> 100 µM

$$$$
>  <Compound>
COc1cc(Oc2c(O)c(C)c(OC)c(C(C)=O)c2O)c(C(C)=O)c(O)c1C

>  <TGI>
> 100 µM

$$$$
>  <Compound>
Cc1nnc2sc(-c3ccc(-c4ccccc4Cl)o3)nn12

>  <TGI>
83.5 µM

$$$$
>  <Compound>
CCOC(=O)N1CCN(C(=O)Nc2cccc3ccccc23)CC1

>  <TGI>
> 10 µM

$$$$
>  <Compound>
CC(=O)Oc1ccccc1C(=O)C1c2cccc(O)c2C(=O)c2c(O)cccc21

>  <TGI>
3.7 µM

$$$$
>  <Compound>
CCCCC[C@H]1C/C=C2/C(=O)C(Cl)=C[C@@H]2C/C=C\CCCC(=O)O[C@@H](CCCCC)C/C=C2/C(=O)C(Cl)=C[C@@H]2C/C=C\CCCC(=O)O1

>  <TGI>
0.86 µM

$$$$
>  <Compound>
CCOC(=O)/C(C#N)=C1\N[C@H](C(=O)OCC)CO1

>  <TGI>
> 100 µM

$$$$
>  <Compound>
CN(C)C(=C1c2cc([N+](=O)[O-])ccc2-c2ccc([N+](=O)[O-])cc21)N(C)C

>  <TGI>
> 100 µM

$$$$
>  <Compound>
O=c1cccccc1NCCCCCCCCCNc1cccccc1=O

>  <TGI>
43.4 µM

$$$$
>  <Compound>
COc1cc(/C=C(/c2ccccc2)[N+](=O)[O-])c(OC)c2c1OCO2

>  <TGI>
3.46 µM

$$$$
>  <Compound>
C=CC12CN(C)C3C4COC(CC41)C1(C(=O)Nc4ccccc41)C32 (stereo not given)

>  <TGI>
> 200 µM

$$$$
>  <Compound>
FC(F)(F)c1ccc2nc(Nc3ccc(Cl)c(Cl)c3)c(-c3ccccc3)nc2c1

>  <TGI>
> 100 µM

$$$$
>  <Compound>
O=C(Nc1ccc2c(c1)oc(=O)c1ccccc12)C(Cl)Cl

>  <TGI>
> 100 µM

$$$$
>  <Compound>
S=c1ssc(Sc2ccccn2)c1Cl

>  <TGI>
58.8 µM

$$$$
